- Target Desc: B2 bradykinin receptor (Rattus norvegicus)
- Sequence (P25023 whole entry): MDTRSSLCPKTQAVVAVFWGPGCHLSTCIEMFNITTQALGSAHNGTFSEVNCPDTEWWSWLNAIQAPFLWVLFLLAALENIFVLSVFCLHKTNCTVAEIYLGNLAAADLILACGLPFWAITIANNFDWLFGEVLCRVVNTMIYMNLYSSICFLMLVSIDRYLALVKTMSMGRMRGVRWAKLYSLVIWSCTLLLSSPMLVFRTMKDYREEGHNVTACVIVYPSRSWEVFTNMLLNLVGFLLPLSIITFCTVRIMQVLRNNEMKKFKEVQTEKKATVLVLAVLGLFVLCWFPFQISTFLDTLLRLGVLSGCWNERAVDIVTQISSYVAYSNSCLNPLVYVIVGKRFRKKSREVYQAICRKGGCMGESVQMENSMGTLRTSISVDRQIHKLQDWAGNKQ

{"Cpd Smiles": "O=[N+]([O-])c1cc(S(=O)(=O)NCc2ccccc2)ccc1NNC(=S)NCc1ccccc1", "Target Desc": "B2 bradykinin receptor (Rattus norvegicus)", "Ki": "310 nM"}
{"Cpd Smiles": "O=[N+]([O-])c1ccccc1N/N=C(/S)NCc1ccccc1", "Target Desc": "B2 bradykinin receptor (Rattus norvegicus)", "Ki": "1600 nM"}
{"Cpd Smiles": "NS(=O)(=O)c1ccc(N/N=C(/S)NC(c2ccccc2)c2ccccc2)c([N+](=O)[O-])c1", "Target Desc": "B2 bradykinin receptor (Rattus norvegicus)", "Ki": "4 nM"}
{"Cpd Smiles": "O=C(O)c1ccccc1NNC(=S)NCc1ccccc1", "Target Desc": "B2 bradykinin receptor (Rattus norvegicus)", "Ki": "> 100000 nM"}
